Endpoint Name: melting point

C/C=C/c1cc(OC)c2oc(-c3ccc(O)c(OC)c3)c(C)c2c1: 132 to 133 °C

Given the compound `COc1cc(C(=O)Oc2ccc3c(OC(=O)c4ccc(O)c(OC)c4)c4cc(OC(=O)c5ccc(O)c(OC)c5)ccc4cc3c2)ccc1O` , what is its reported melting point? 206 °C

Same thing, different compound: `Nc1ccc(OCc2nc3ccccc3s2)cc1` 87 to 89 °C

Same thing, different compound: `Cc1noc(NS(=O)(=O)c2ccccc2-c2ccc(-c3ncco3)cc2CN(C)C(=O)c2ccc(F)cc2)c1C` 125 to 135 °C

---

Endpoint Name: melting point

O=C(O)COc1cccc2c1CCc1sc(SCc3ccccc3)nc1-2: 180 to 182 °C
CS(=O)(=O)c1ccc(-c2sc(-c3ccc(Br)s3)nc2-c2ccc(F)cc2)cc1: 190 to 191 °C
CC(=O)NC[C@H]1CN(c2ccc(N3CCN(C(=O)CCC(=O)c4ccc(Br)cc4)CC3)c(F)c2)C(=O)O1: 197 to 198 °C
CC1(C)C(=O)N(Cc2ccccc2)C(=O)N1CC#CI: 83 to 85 °C
CC(C)C(=O)N[C@@H](CSC(=O)C(C)(C)C)C(=O)NCCSC(=O)c1ccccc1: 112 to 114 °C
CCOC(=O)/C=C/c1c(-c2ccccc2)c2c3ccccc3cnn2c1C(C)C: 158 to 159 °C

Given the compound COc1ccc(C#N)c2c1OC1(COCC1OC)C2 (stereo not given) , what is its reported melting point? 151 to 156 °C

Same thing, different compound: `Cc1ccc2cc(-c3ccc4ccc5cccc6ccc3c4c56)ccc2n1` 133 °C

Same thing, different compound: `CCOC(=O)c1cc2cc(N)ccc2nn1` 204 to 206 °C

Same thing, different compound: `CC(C)(C)C(=O)Nc1ncc(Cl)cc1C=O` 169 to 171 °C
